These data points were gathered from paper PMC10920834.

- Test system: A549 cells
- Assay notes: Cell viability resazurin assay, A549 cells
- Format: cell-based, human
- Condition description: 2 h incubation, 25 µM, ± SD
So basically, if viability of A549 cells relative to control comes in under 80% it's true, and if it's 80% or more it's false.

{"columns": ["Molecule", "Label value"],
 "data": [
  ["O=C1C=CC(=O)[N-]1.[C-]#[O+].[Fe+2].c1cc[cH-]c1.c1coc(P(c2ccco2)c2ccco2)c1 [2b, CpFe(CO)(P(Fu)3)(η^1-N-maleimidato)]", "false"],
  ["O=C1C=CC(=O)[N-]1.[C-]#[O+].[C-]#[O+].[Fe+2].c1cc[cH-]c1 [compound 1, CpFe(CO)2(η^1-N-maleimidato)]", "true"],
  ["O=C1C=CC(=O)[N-]1.[C-]#[O+].[Fe+2].c1cc[cH-]c1.c1ccc(OP(Oc2ccccc2)Oc2ccccc2)cc1 [3b, CpFe(CO)(P(OPh)3)(η^1-N-maleimidato)]", "false"]
]}

Problem: Answer whether the molecule O=C1C=CC(=O)[N-]1.[C-]#[O+].[Fe+2].c1cc[cH-]c1.c1ccc(P(c2ccccc2)c2ccccc2)cc1 [2a, CpFe(CO)(PPh3)(η^1-N-maleimidato)] has viability of A549 cells relative to control strictly less than 80%
Result: true

###

- Test system: PBM cells
- Assay notes: Cell viability resazurin assay, PBM cells
- Assay type: cell-based, human
- Condition description: 2 h incubation, 25 µM, ± SD
# viability of PBM cells relative to control per record follows
Kindly provide the numeric value in % only, without the unit symbol.

{"columns": ["Smiles repr", "Result value"],
 "data": [
  ["O=C1C=CC(=O)[N-]1.[C-]#[O+].[Fe+2].c1cc[cH-]c1.c1ccc(OP(Oc2ccccc2)Oc2ccccc2)cc1", 98.42],
  ["O=C1C=CC(=O)[N-]1.[C-]#[O+].[C-]#[O+].[Fe+2].c1cc[cH-]c1", 99.86],
  ["O=C1C=CC(=O)[N-]1.[C-]#[O+].[Fe+2].c1cc[cH-]c1.c1ccc(P(c2ccccc2)c2ccccc2)cc1", 102.46],
  ["O=C1C=CC(=O)[N-]1.[C-]#[O+].[Fe+2].c1cc[cH-]c1.c1coc(P(c2ccco2)c2ccco2)c1", 93.16]
]}

Problem: Indicate the recorded viability of PBM cells relative to control value for this compound: CCOP(OCC)OCC.O=C1C=CC(=O)[N-]1.[C-]#[O+].[Fe+2].c1cc[cH-]c1
Result: 98.19

###

- Tested on: PBM cells
- Assay notes: Cell viability resazurin assay, PBM cells
- Format: cell-based, human
- Condition description: 2 h incubation, 100 µM, ± SD
- Description: Peripheral blood mononuclear (PBM) cells were isolated from a leukocyte-buffy coat collected from the blood of healthy, non-smoking donors at the Blood Bank in Lodz, Poland. […] Firstly, resazurin salt powder was dissolved in sterile 1 × PBS. […] Finally, fluorescence was measured with microplate reader Synergy HT (Bio-Tek Instruments, USA) using an excitation wavelength of 530/25 and an emission wavelength of 590/35 nm. […]
Reported property: viability of PBM cells relative to control (%)
Kindly provide the numeric value in % only, without the unit symbol.

{"columns": ["Molecule", "Measured on", "Result value"],
 "data": [
  ["O=C1C=CC(=O)[N-]1.[C-]#[O+].[Fe+2].c1cc[cH-]c1.c1ccc(P(c2ccccc2)c2ccccc2)cc1 [2a, CpFe(CO)(PPh3)(η^1-N-maleimidato)]", "PBM cells", 104.68],
  ["O=C1C=CC(=O)[N-]1.[C-]#[O+].[C-]#[O+].[Fe+2].c1cc[cH-]c1 [compound 1, CpFe(CO)2(η^1-N-maleimidato)]", "PBM cells", 100.59],
  ["O=C1C=CC(=O)[N-]1.[C-]#[O+].[Fe+2].c1cc[cH-]c1.c1ccc(OP(Oc2ccccc2)Oc2ccccc2)cc1 [3b, CpFe(CO)(P(OPh)3)(η^1-N-maleimidato)]", "PBM cells", 98.48],
  ["CCOP(OCC)OCC.O=C1C=CC(=O)[N-]1.[C-]#[O+].[Fe+2].c1cc[cH-]c1 [3a]", "PBM cells", 97.79]
]}

# evaluate next
Problem: Supply viability of PBM cells relative to control measured with PBM cells for O=C1C=CC(=O)[N-]1.[C-]#[O+].[Fe+2].c1cc[cH-]c1.c1coc(P(c2ccco2)c2ccco2)c1 [2b, CpFe(CO)(P(Fu)3)(η^1-N-maleimidato)] .
Result: 78.49
